Measure Name: logP

c1ccc2c(c1)OCCOCCOCCOCCOCCOCCOCCOCCOCCOCCO2    -0.09
c1ccc2c(c1)OCCOCCOCCOCCOCCOCCOc1ccccc1OCCOCCOCCO2    1.45
COCCOCCOCCOc1ccccc1OCCOCCOCCOC    0.38
c1ccc2c(c1)OCCOCCOCCOCCOCCO2    0.58
COCCOCCOc1ccccc1OCCOCCOC    0.76
COCCOCCOc1ccc(OCCOCCOC)cc1    0.76
c1ccc2c(c1)OCCOCCOCCOCCOCCOCCOCCOCCO2    0.23
c1ccc2c(c1)OCCOCCOCCOCCOCCOCCOCCOc1ccccc1OCCOCCOCCOCCOCCOCCOCCO2    0.52
c1ccc2c(c1)OCCOCCOCCOCCOCCOCCOCCOc1ccccc1OCCO2    1.82
c1ccc2c(c1)OCCOCCOc1ccccc1OCCOCCO2    2.2
c1ccc2c(c1)OCCOCCOCCOCCO2    0.91
COCCOCCOc1cccc(OCCOCCOC)c1    0.86

Values were extracted from the SangsterLogP compilation.
